- System: A549
- measurement description: Cell cycle effects and total cell number (DAPI imaging)
- Format: cell-based, human
- measurement setup: Homo sapiens, A549, 48 h; read-out: IC50 for reductions in the total cell number
property measured: IC50
Could you give the number and then its unit, please?

CCN(CC)CCNC(=O)c1c(C)[nH]c(/C=C2\C(=O)Nc3ccc(F)cc32)c1C [Sunitinib, sunitinib, reference compound]	3480 nM

Moving on to the next molecule.
For the molecule O=C1Nc2ccc(Br)cc2C1=NN=C1C(=O)N(Cc2ccccc2)c2ccccc21 [Compound 7e] , what IC50 is on record?
2360 nM

* * *

- Test system: IEC-6
- measurement description: Selectivity: growth inhibition in non-tumorigenic cell line
- Type: cell-based
- measurement setup: Rattus norvegicus, 72 h, maximum 25 μM, read-out: IC50 Intestine IEC-6
Would you kindly list IC50 for each of these compounds?
Give bare numbers, in µM.

Each compound below has a recorded value; state its IC50.
1. O=C1Nc2ccc(Br)cc2C1=NN=C1C(=O)N(Cc2ccccc2)c2ccccc21 [Compound 7e]
2. CCN(CC)CCNC(=O)c1c(C)[nH]c(/C=C2\C(=O)Nc3ccc(F)cc32)c1C [Sunitinib, sunitinib, reference compound]

1. 3.72
2. 4.56

* * *

- System: phosphorylated tyrosine (p-Tyr) in A549 cells
- measurement description: Total cellular tyrosine phosphorylation after serum stimulation (immunofluorescent imaging)
- Format: cell-based, human
- measurement setup: Homo sapiens, A549, 10 min, A549, 10 min 10% fetal bovine serum; apparent IC50 of an increase for 7e, of a decrease for sunitinib; read-out: IC50 for change in total tyrosine phosphorylation (p-Tyr) levels
- Experimental: Furthermore, compound 7e was analyzed for its effect on total cellular levels of phosphorylated tyrosine (p-Tyr) residues in human cancer cells. These studies were carried out using cells derived from lung adenocarcinoma (A549) and immunofluorescent imaging. […] Cells were stimulated for 10 min with 10% fetal bovine serum. Phosphotyrosine levels were determined by indirect immunofluorescence followed by automated image acquisition and analysis.
property measured: pIC50
Give bare numbers, as −log10 of the molar value.

O=C1Nc2ccc(Br)cc2C1=NN=C1C(=O)N(Cc2ccccc2)c2ccccc21 [Compound 7e]	5.42

For the molecule CCN(CC)CCNC(=O)c1c(C)[nH]c(/C=C2\C(=O)Nc3ccc(F)cc32)c1C [Sunitinib, sunitinib, reference compound] , what pIC50 is on record?
6.05

* * *

- System: HT-29, ZR-75 and A-549 cell lines
- measurement description: Average anti-proliferative activity over the three cancer cell lines
- Assay type: cell-based, human
- measurement setup: Homo sapiens; 30 μM; average of HT-29, ZR-75, A-549; read-out: Average Growth Inhibition %
Would you kindly list inhibition at 30 µM for each of these compounds?
Answers are plain numbers, in %.

COc1ccc(C=NN=C2C(=O)Nc3ccc(Br)cc32)cc1	-4.3
COc1cc(C=NN=C2C(=O)Nc3ccccc32)cc(OC)c1OC	87.2
COc1ccc(C=NN=C2C(=O)Nc3ccc(Br)cc32)cc1O	45.6
COc1ccc(C=NN=C2C(=O)Nc3ccc(Cl)cc32)cc1OC	11.4
COc1cc(C=NN=C2C(=O)Nc3ccc(Br)cc32)ccc1O	61.5

Each compound below has a recorded value; state its inhibition at 30 µM.
1. O=C1Nc2ccccc2C1=NN=C1C(=O)N(Cc2ccccc2)c2ccccc21
2. COc1cc(C=NN=C2C(=O)Nc3ccc(Cl)cc32)ccc1O
3. O=C1Nc2ccc(Cl)cc2C1=NN=C1C(=O)N(Cc2ccccc2)c2ccccc21
4. COc1ccc(C=NN=C2C(=O)Nc3ccccc32)cc1OC

1: 84.2; 2: 36.6; 3: 97.7; 4: 74.3

* * *

Would you kindly list melting point for each of these compounds?

Sample answers from the record:
COc1ccc(C=NN=C2C(=O)Nc3ccccc32)cc1OC	276 to 278 °C
COc1cc(C=NN=C2C(=O)Nc3ccc(Br)cc32)cc(OC)c1OC	261 to 263 °C
O=C1Nc2ccc(Br)cc2C1=NN=C1C(=O)N(Cc2ccccc2)c2ccccc21	265 to 267 °C
COc1ccc(C=NN=C2C(=O)Nc3ccc(Cl)cc32)cc1OC	282 to 284 °C

Each compound below has a recorded value; state its melting point.
1. COc1ccc(C=NN=C2C(=O)Nc3ccc(Br)cc32)cc1OC
2. COc1ccc(C=NN=C2C(=O)Nc3ccccc32)cc1
3. O=C1Nc2ccc(Cl)cc2C1=NN=C1C(=O)N(Cc2ccccc2)c2ccccc21
4. COc1cc(C=NN=C2C(=O)Nc3ccc(Cl)cc32)cc(OC)c1OC
5. COc1cc(C=NN=C2C(=O)Nc3ccc(Cl)cc32)ccc1O

["280 to 282 °C", "277 to 279 °C", "258 to 260 °C", "245 to 247 °C", "269 to 271 °C"]

* * *

Would you kindly list IC50 for each of these compounds?
- Test system: ZR-75
- measurement description: Anti-proliferative activity, cell growth inhibition (CellTiterGlo, 72 h)
- Assay type: cell-based, human
- measurement setup: Homo sapiens, ZR75, 72 h
- Protocol: Twenty compounds, i.e. 4a-o and 7a-e, were analyzed for cancer cell growth inhibitory activity. These studies were carried out using cells derived from human lung, colon and breast tumors (A549, HT-29 and ZR-75 cells, respectively). […] Percent growth inhibition was calculated as follows, where 100 represents the viability of vehicle treated control samples: The potency of compounds was determined using the non-linear dose response algorithm (four-parameter logistic fit) with GraphPad Prism 5 software.
One number for each entry, in µM.

O=C1Nc2ccc(Br)cc2C1=NN=C1C(=O)N(Cc2ccccc2)c2ccccc21 [Compound 7e]	1.79
O=C1Nc2ccc(Cl)cc2C1=NN=C1C(=O)N(Cc2ccccc2)c2ccccc21 [Compound 7d]	2.42

For the compound CCN(CC)CCNC(=O)c1c(C)[nH]c(/C=C2\C(=O)Nc3ccc(F)cc32)c1C [Sunitinib, sunitinib, reference compound] , what IC50 is on record?
8.31

* * *

- Test system: HT-29, ZR-75 and A-549 cell lines
- measurement description: Average anti-proliferative activity over the three cancer cell lines
- Assay type: cell-based, human
- measurement setup: Homo sapiens; 30 μM; average of HT-29, ZR-75, A-549; read-out: Average Growth Inhibition %
Would you kindly list inhibition at 30 µM for each of these compounds?
Answers are plain numbers, in %.

Sample answers from the record:
CN1C(=O)C(=NN=C2C(=O)Nc3ccc(F)cc32)c2ccccc21	85
COc1cc(C=NN=C2C(=O)Nc3ccccc32)ccc1O	61.5
COc1ccc(C=NN=C2C(=O)Nc3ccccc32)cc1	27.2

Each compound below has a recorded value; state its inhibition at 30 µM.
1. COc1ccc(C=NN=C2C(=O)Nc3ccc(Cl)cc32)cc1O
2. O=C1Nc2ccc(Br)cc2C1=NN=C1C(=O)N(Cc2ccccc2)c2ccccc21
3. COc1ccc(C=NN=C2C(=O)Nc3ccc(Br)cc32)cc1OC
4. COc1ccc(C=NN=C2C(=O)Nc3ccccc32)cc1O

1: 41.2; 2: 96.3; 3: 3.5; 4: 69.2

Each compound below has a recorded value; state its inhibition at 30 µM.
1. CCN(CC)CCNC(=O)c1c(C)[nH]c(/C=C2\C(=O)Nc3ccc(F)cc32)c1C [Sunitinib, sunitinib, reference compound]
2. COc1cc(C=NN=C2C(=O)Nc3ccc(Cl)cc32)cc(OC)c1OC
3. COc1ccc(C=NN=C2C(=O)Nc3ccc(Cl)cc32)cc1
4. COc1cc(C=NN=C2C(=O)Nc3ccc(Br)cc32)cc(OC)c1OC

1. 78.7
2. 8.9
3. 8.4
4. -0.5

* * *

Would you kindly list melting point for each of these compounds?

Sample answers from the record:
COc1ccc(C=NN=C2C(=O)Nc3ccc(Cl)cc32)cc1	282 to 284 °C
COc1ccc(C=NN=C2C(=O)Nc3ccc(Br)cc32)cc1	290 to 292 °C
COc1ccc(C=NN=C2C(=O)Nc3ccc(Br)cc32)cc1O	278 to 280 °C
O=C1Nc2ccccc2C1=NN=C1C(=O)N(Cc2ccccc2)c2ccccc21	255 to 257 °C
COc1cc(C=NN=C2C(=O)Nc3ccccc32)cc(OC)c1OC	240 to 241 °C

Each compound below has a recorded value; state its melting point.
1. COc1cc(C=NN=C2C(=O)Nc3ccc(Br)cc32)ccc1O
2. COc1ccc(C=NN=C2C(=O)Nc3ccccc32)cc1O
3. COc1ccc(C=NN=C2C(=O)Nc3ccc(Cl)cc32)cc1O
4. CN1C(=O)C(=NN=C2C(=O)Nc3ccc(F)cc32)c2ccccc21

1: 285 to 287 °C; 2: 273 to 275 °C; 3: 278 to 280 °C; 4: 295 to 297 °C
